ASSAY_TARGET: mitochondrial respiratory complex II (succinate-ubiquinone oxidoreductase) (Rattus norvegicus, UniProt P21913+Q641Z9+Q6PCT8)
Sequence (P21913 31-282): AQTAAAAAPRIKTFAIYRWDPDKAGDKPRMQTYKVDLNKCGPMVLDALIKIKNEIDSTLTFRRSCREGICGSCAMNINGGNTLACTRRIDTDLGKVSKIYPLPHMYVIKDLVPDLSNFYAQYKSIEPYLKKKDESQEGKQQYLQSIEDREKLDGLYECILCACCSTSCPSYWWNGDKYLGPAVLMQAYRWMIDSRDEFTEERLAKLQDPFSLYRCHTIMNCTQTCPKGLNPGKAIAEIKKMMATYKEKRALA
Sequence (Q641Z9 30-169): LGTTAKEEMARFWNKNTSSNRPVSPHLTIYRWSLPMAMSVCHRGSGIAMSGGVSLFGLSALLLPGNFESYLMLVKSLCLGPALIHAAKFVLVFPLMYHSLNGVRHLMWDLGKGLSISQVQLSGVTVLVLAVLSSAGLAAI
Sequence (Q6PCT8 57-159): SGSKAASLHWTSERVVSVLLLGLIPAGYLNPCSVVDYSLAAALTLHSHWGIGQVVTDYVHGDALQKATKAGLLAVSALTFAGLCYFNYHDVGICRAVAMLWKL
Sequence (Q920L2 35-656 partner): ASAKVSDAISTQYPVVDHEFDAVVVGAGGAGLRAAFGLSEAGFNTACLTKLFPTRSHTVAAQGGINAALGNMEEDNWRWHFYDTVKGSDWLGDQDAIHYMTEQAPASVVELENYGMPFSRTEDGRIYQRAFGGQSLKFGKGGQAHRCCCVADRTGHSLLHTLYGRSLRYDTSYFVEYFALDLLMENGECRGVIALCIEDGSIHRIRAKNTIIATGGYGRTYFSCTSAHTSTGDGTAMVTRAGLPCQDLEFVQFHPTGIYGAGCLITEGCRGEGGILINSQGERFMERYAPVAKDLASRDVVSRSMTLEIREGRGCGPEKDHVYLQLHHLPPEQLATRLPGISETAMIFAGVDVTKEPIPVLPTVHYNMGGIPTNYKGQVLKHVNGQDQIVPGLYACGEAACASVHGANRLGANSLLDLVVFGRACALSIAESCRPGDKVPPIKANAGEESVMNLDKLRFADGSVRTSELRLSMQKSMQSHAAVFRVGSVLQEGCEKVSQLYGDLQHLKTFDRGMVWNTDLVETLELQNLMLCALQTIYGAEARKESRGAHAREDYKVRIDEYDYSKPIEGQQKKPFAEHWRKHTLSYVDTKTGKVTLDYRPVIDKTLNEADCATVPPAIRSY

COMPOUND_STRING	UNITS	IC50
COc1[nH]c(=O)c(C(=O)[C@@H](C)C[C@H](C)[C@@H](Cl)CCl)c(O)c1OC	nM	8.3
